- assay.notes: qHTS Assay for Lipid Storage Modulators in Drosophila S3 Cells
- test.settings: BODIPY lipid droplet fluorescence, 18-24 h, cells fed with added oleic acid; series mostly up to 46.1 µM
- From the text: NIH Molecular Libraries Probe Production Centers Network [MLPCN] NIH Chemical Genomics Center [NCGC] […] Triacsin C (Sigma-Aldrich T-4540), an inhibitor of long-chain fatty acyl CoA synthetase that blocks synthesis of triglycerides, was used as a positive control for lipid under-storage. […] Fluorescence was detected by excitation of the fluorophores with a 488-nm laser on an Acumen Explorer (TTP Lab Tech). […] Cells were detected using channel 3 (575-640 nm) with 5-um width and 100-um depth filters. […]
The whole screen tested about 320,000 compounds, of which about 2,100 (0.66%) were called active. About 53% were inconclusive and are not listed. The call rests on the fitted dose curve; in most records, active means well fitted inhibition curve with a large enough effect in the signal ratio, with a control signal flat (not every such curve was filed as active); inconclusive means small, poorly fitted or top-dose-only effect, or effect the other way, or a change in a side signal; inactive means flat fitted curve, though single readings scatter; the % refers to the signal ratio. The sample as a whole holds a higher share of actives than the screen did.
Pick from active, inactive when you respond.

Worked examples follow.
>  <compound>
CCC(C(=O)Nc1cccnc1)n1c(=O)[nH]c2ccccc2c1=O (configuration not stated)

>  <discrete.label>
active

$$$$
>  <compound>
Cc1cc2oc(C(=O)N3CCN(CCc4ccccn4)CC3)c(C)c2cc1C

>  <discrete.label>
inactive

$$$$
>  <compound>
O=C(N1CCN=C1SCc1cccnc1)C12CC3CC(CC(C3)C1)C2

>  <discrete.label>
inactive

$$$$
>  <compound>
CN(CCCCOc1ccc(F)cc1)Cc1ccccc1

>  <discrete.label>
inactive

$$$$
>  <compound>
CCN(CC)C(=O)C1CCN(S(=O)(=O)c2ccc(-n3cnnn3)cc2)CC1

>  <discrete.label>
inactive

$$$$
>  <compound>
CSC1=NCCN1C(=O)C12CC3CC(CC(C3)C1)C2

>  <discrete.label>
active

$$$$
>  <compound>
CC(C)(C)OC(=O)Cn1c(=O)cnc2ccccc21

>  <discrete.label>
inactive

$$$$
>  <compound>
C#CCN(C(=O)c1ccc(OC)c(OC2CCN(C(C)C)CC2)c1)C1CCCCC1

>  <discrete.label>
inactive

$$$$

[Q] Would you mind telling me which call this test gave `COc1ccc(OCC(=O)NNC(=O)Cn2c(=O)cnc3ccccc32)cc1` ?
[A] inactive

[Q] Which result was noted for this compound in the test: `CCN(CC)CCNC(=S)Nc1ccc(Cl)cc1`
[A] inactive

[Q] Which outcome did this test record for the compound `Nc1cccnc1Sc1cccc(Cl)c1` ?
[A] inactive

[Q] Tell me the recorded outcome of this test for `COC(=O)Cn1c(=O)cnc2ccccc21` .
[A] active

====

- assay.notes: qHTS Assay for Lipid Storage Modulators in Drosophila S3 Cells;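 on cell number change: cells counted by Cell Tracker Red CMTPX staining in the red channel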
- test.settings: BODIPY lipid droplet fluorescence, 18-24 h, cells fed with added oleic acid; measured here: cell count max response
In all, about 320,000 compounds went through this assay and about 2,100 (0.66%) were called active. About 53% were inconclusive and are not listed. For the sample, actives were picked, then their nearest neighbours and some compounds at random.
measured.attribute: cell number change (%)
State the answer as a number, implicitly in %.

Look over these answered cases.
>  <compound>
CCN1C(=NCc2ccco2)N[C@@H](c2cccc(F)c2)C(C(=O)OC)=C1C

>  <measured.attribute>
cell number change

>  <observed.result>
16.3

$$$$
>  <compound>
COc1ccc(Br)cc1/C=N/n1c(C)nc2ccccc2c1=O

>  <measured.attribute>
cell number change

>  <observed.result>
-4.17

$$$$
>  <compound>
O=C(COC(=O)c1ccc(Cl)cc1[N+](=O)[O-])NC(=O)c1ccccc1

>  <measured.attribute>
cell number change

>  <observed.result>
-11.4

$$$$
>  <compound>
Nc1nonc1-n1nnc(C(=O)N/N=C/c2ccccc2Br)c1CN1CCCC1

>  <measured.attribute>
cell number change

>  <observed.result>
-1.9

$$$$
>  <compound>
COc1ccc(Cl)cc1NC(=O)Nc1ccccc1C(N)=O

>  <measured.attribute>
cell number change

>  <observed.result>
14.7

$$$$
>  <compound>
COCCOC(=O)c1c(NC(=O)COC(=O)c2ccc(C)o2)sc(C(N)=O)c1C

>  <measured.attribute>
cell number change

>  <observed.result>
-10.2

$$$$
>  <compound>
CC(C(=O)NCCc1ccc(Cl)cc1)n1c(=O)c2cccn2c2cccnc21 (configuration not stated)

>  <measured.attribute>
cell number change

>  <observed.result>
-6.73

$$$$
>  <compound>
CCCNc1ccc(S(=O)(=O)N(CC)CC)cn1

>  <measured.attribute>
cell number change

>  <observed.result>
5.83

$$$$
>  <compound>
CCOc1ccccc1/C=N/NC(=O)c1nnn(-c2nonc2N)c1CN1CCCC1

>  <measured.attribute>
cell number change

>  <observed.result>
16

$$$$
>  <compound>
COc1cc(OC)c(OC)cc1/C=N/n1c(C)nc2ccccc2c1=O

>  <measured.attribute>
cell number change

>  <observed.result>
16.2

$$$$

Entry `O=C1CCCc2c1cc(C(=O)NCc1ccco1)c(=O)n2-c1ccccc1` , cell number change reported as 1.19

cell number change measured on Cc1cc(C)c(S(=O)(=O)N2CCOC2CNC(=O)C(=O)NCCCN2CCOCC2)c(C)c1 (configuration not stated) = 8.11

Sample `Cc1cccc(N2CCN(C(=O)CCCCCn3c(=S)[nH]c4ccc(N5CCOCC5)cc4c3=O)CC2)c1C` ; cell number change observed: 1.42

The compound listed as `CC(/C=N/NC(=O)c1nnn(-c2nonc2N)c1CN(C)C)=C\c1ccco1` shows cell number change equal to -0.367

// sample `COc1ccc2c(c1)[nH]c1c(=O)n(N)cnc12` , its cell number change was 6.47

Record summary for `O=C(Cn1c(=O)c2cccn2c2ccccc21)NCCc1ccc(Cl)cc1` : reported cell number change = 23.3

====

- assay.notes: qHTS Assay for Lipid Storage Modulators in Drosophila S3 Cells;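 on cell number change: cells counted by Cell Tracker Red CMTPX staining in the red channel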
- test.settings: BODIPY lipid droplet fluorescence, 18-24 h, cells fed with added oleic acid; measured here: cell count max response
In all, about 320,000 compounds went through this assay and about 2,100 (0.66%) were called active. Inconclusive results (about 53%) are left out. The full list was thinned out, with actives kept by preference.
Reported values of cell number change for individual entries
Kindly format the answer as number then unit.

>  <compound>
NC(=O)Cn1nc([N+](=O)[O-])nc1Oc1ccccc1C(=O)N1CCOCC1

>  <cell number change>
-24.1%

$$$$
>  <compound>
Cc1ccccc1N1C(=O)C(Cl)=C(N2CCCCCC2)C1=O

>  <cell number change>
-0.204%

$$$$
>  <compound>
COc1ccccc1N(CC(=O)Nc1cccnc1)S(=O)(=O)c1ccccc1

>  <cell number change>
-18%

$$$$
>  <compound>
NC(=O)Cn1nc([N+](=O)[O-])nc1Oc1ccc(Br)cc1

>  <cell number change>
-1.14%

$$$$
>  <compound>
COc1ccc(N(CC(=O)NC2CC3CCC2C3)S(=O)(=O)c2ccc(C)cc2)cc1OC (stereo unspecified)

>  <cell number change>
8.82%

$$$$

Lab note: measured cell number change of `CCc1cccc(NC(=O)NC(=O)Cn2nnc(C(=O)OC)c2C(=O)OC)c1` was 1.8%

// cell number change lookup, compound = `COc1ccc(OC)c(/C=C/C(=O)NCCc2nc3ccccc3[nH]2)c1` , result: -6.41%

Item: `CCCCCOc1ccc(/C=C/C(=O)NCCc2nc3ccccc3[nH]2)cc1OC` | cell number change: -28.6%

====

- assay.notes: qHTS Assay for Lipid Storage Modulators in Drosophila S3 Cells
- test.settings: BODIPY lipid droplet fluorescence, 18-24 h, cells fed with added oleic acid; series mostly up to 46.1 µM
Among all 320,000 compounds or so, about 2,100 (0.66%) were called active. Not shown: some 53% with an inconclusive outcome. The call rests on the fitted dose curve; in most records, active means well fitted inhibition curve with a large enough effect in the signal ratio, with a control signal flat (not every such curve was filed as active); inconclusive means small, poorly fitted or top-dose-only effect, or effect the other way, or a change in a side signal; inactive means flat fitted curve, though single readings scatter; the % refers to the signal ratio. This excerpt belongs to a sample that is enriched for actives.
Mark one answer only. Choices: Yes = active, No = inactive

>  <molecule>
O=C(CCc1nnc2n(Cc3ccc(Cl)cc3)c(=O)c3ccccc3n12)N1CCN(c2ccccn2)CC1

>  <discrete.label>
No

$$$$
>  <molecule>
Cc1ccc(C)n1NC(=O)c1cccc(Cl)c1

>  <discrete.label>
Yes

$$$$
>  <molecule>
Cc1cc(C(=O)NN=C2C3CC4CC(C3)CC2C4)c2ccccc2n1

>  <discrete.label>
No

$$$$
>  <molecule>
O=C(Nc1ccc2ccccc2c1)c1ccc(Cl)cc1Cl

>  <discrete.label>
No

$$$$

[Q] GET /call?item= `O=C(Nc1ccc2ccccc2c1)c1ccc(Cl)cc1` returns the recorded outcome of this test.
[A] Yes

[Q] How did this test come out for CC(C(=O)Nc1ccc2c(c1)OCCO2)N(C)Cc1c(F)cccc1Cl (configuration not stated) ?
[A] No

[Q] Write down the call the test reported for this molecule. Item: `CCOc1ccccc1N(CC(=O)NCc1ccco1)C(=O)CCC(=O)Nc1nccs1`
[A] Yes

[Q] For `COc1ccc(CNC(=O)[C@H](C)NC(=O)C2CCN(S(=O)(=O)c3ccc(F)cc3)CC2)cc1` , what call appears in the results of this test?
[A] Yes

[Q] Each molecule tested received a call. Report the one for `O=C(CN(C(=O)CCC(=O)Nc1nccs1)c1ccccc1F)NCCc1ccccc1` .
[A] No
